What IC50 was measured for each of the following?
Biological target: hNav1.4 (human skeletal muscle sodium channel) (Homo sapiens, UniProt P35499)
Construct: gene SCN4A; alpha subunit permanently transfected in HEK293 cells; no beta subunit mentioned
Sequence (P35499 whole entry): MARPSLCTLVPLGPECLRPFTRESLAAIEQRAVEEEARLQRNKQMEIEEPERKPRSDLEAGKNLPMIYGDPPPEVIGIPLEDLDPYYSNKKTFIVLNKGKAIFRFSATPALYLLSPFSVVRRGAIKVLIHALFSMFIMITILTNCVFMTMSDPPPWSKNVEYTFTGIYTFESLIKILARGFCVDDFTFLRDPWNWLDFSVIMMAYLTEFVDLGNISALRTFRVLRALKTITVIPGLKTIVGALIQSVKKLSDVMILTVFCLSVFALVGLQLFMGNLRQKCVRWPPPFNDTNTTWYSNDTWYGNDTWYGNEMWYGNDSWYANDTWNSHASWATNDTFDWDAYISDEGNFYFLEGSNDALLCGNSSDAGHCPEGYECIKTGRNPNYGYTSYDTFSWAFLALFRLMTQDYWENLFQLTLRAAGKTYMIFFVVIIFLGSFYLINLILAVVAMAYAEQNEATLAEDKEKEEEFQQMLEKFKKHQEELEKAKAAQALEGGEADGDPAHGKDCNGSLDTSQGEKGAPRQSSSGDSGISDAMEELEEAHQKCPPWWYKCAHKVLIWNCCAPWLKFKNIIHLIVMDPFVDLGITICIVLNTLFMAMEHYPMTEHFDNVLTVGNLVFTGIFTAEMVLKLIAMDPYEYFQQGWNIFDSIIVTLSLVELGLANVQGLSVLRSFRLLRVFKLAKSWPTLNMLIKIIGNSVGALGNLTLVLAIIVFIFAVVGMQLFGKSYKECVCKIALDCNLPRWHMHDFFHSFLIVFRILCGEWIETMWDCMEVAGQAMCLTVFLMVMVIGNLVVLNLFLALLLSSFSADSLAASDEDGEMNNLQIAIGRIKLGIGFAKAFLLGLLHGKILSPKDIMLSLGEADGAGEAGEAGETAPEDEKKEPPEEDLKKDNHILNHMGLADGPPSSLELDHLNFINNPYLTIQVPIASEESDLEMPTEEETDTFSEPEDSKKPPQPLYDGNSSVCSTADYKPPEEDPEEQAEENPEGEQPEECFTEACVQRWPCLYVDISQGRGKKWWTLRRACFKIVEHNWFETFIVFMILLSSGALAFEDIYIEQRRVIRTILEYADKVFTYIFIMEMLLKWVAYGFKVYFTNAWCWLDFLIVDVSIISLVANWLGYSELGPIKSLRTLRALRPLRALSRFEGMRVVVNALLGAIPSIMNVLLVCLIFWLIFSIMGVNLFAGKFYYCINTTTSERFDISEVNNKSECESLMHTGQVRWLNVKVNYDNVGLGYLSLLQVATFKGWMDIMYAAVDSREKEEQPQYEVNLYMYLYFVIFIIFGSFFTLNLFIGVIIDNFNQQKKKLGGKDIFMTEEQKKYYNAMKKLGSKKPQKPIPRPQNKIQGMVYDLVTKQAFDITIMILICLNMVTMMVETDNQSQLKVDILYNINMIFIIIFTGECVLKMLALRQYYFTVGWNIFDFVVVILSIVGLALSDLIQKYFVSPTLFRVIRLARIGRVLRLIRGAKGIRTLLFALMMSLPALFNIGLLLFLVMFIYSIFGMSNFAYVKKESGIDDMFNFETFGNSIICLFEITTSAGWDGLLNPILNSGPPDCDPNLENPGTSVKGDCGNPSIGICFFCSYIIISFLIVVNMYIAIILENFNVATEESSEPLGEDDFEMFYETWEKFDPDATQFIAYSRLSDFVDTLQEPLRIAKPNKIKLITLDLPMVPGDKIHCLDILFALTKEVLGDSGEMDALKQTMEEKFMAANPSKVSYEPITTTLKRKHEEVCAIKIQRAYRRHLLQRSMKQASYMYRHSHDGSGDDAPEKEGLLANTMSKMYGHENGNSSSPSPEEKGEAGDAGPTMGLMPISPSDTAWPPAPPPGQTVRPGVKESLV
Test: whole-cell patch clamp, sodium current in HEK293
Assay type: cell-based
Details: read-out: IC50 (μM) / 50 Hz, hp - 90 mV
Description: whole-cell patch clamp, sodium current in HEK293 on hNav1.4 (human skeletal muscle sodium channel)

Req: Consider the molecule shown here: NC(=O)N1c2ccccc2C=Cc2ccccc21 [Carbamazepine] What is its recorded IC50?
Resp: ~100 µM

Req: Consider the molecule shown here: Cc1cccc(C)c1OCC(C)N (stereo not drawn) What is its recorded IC50?
Resp: ~20 µM

Req: Consider the molecule shown here: O=C(NCC1CCCCN1)c1cc(OCC(F)(F)F)ccc1OCC(F)(F)F (stereo not drawn) [Flecainide] What is its recorded IC50?
Resp: ~4 µM

Req: Consider the molecule shown here: NC(=O)N1c2ccccc2C2OC2c2ccccc21 (stereo not drawn) What is its recorded IC50?
Resp: ~70 µM

Req: Consider the molecule shown here: CCCNCC(O)COc1ccccc1C(=O)CCc1ccccc1 (stereo not drawn) What is its recorded IC50?
Resp: ~1.5 µM

Req: Consider the molecule shown here: "Nc1nc2ccc(OC(F)(F)F)cc2s1" What is its recorded IC50?
Resp: ~0.9 µM

The measured values listed here are drawn from paper PMC4004800.
